# SYSTEM NAME: T1, murine PRLR (Biacore antigen) (murine, UniProt Q08501 20-229, limits assumed)
# T1 construct: also called muPRLR
# T1 sequence (looked up): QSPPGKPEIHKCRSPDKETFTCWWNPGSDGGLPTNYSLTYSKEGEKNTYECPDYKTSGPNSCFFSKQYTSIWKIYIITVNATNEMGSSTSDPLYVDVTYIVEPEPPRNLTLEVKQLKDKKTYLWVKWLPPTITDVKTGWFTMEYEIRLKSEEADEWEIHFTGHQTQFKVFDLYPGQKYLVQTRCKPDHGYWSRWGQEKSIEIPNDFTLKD
# PROTOCOL TEXT: SPR Biacore
MEASUREMENT NAME: Kd

{"columns": ["BINDER", "Kd"],
 "data": [
  ["Ab54 (antibody, human IgG1, kappa, V domains shown, humanized from Ab7 (back mutations on Ab39); G1; also called Ab4 HC.1a.3 and Ab4 LC.1a) VH: EVQLVQSGAEVKKPGSSVKVSCKASGYTFTSYWIHWVRQAPGQGLEWIGEIDPSDSYTNYNQKFKGRATLTVDKSSSTAYMELSSLRSEDTAVYYCGRSFFTNWFAYWGQGTLVTVSS VL: DVVMTQTPLSLSVTPGQPASISCRSSQSLVHSNGNTYLHWYLQKPGQSPQLLIYKVSNRFSGVPDRFSGSGSGTDFTLKISRVEAEDVGVYFCSQSTHVPFTFGGGTKVEIKR", "170 nM"]
]}

In the following, a different binder is considered.
Input: Any idea what its Kd is? The binder is LFA102 (antibody, human IgG1, kappa, V domains shown, humanized IgG1 kappa comparator (WO 2008022295)) VH: EVQLVESGGGLVQPGGSLRLSCAVSGFTFSSYGMSWVRQAPGKRLEWVATVSSGGTYTYYPDSVKGRFTISRDNSKNTLYLQMNSLRAEDTAMYYCARHRGNYYATYYYAMDYWGQGTLVTVSS VL: DIVLTQSPDSLAVSLGERATINCKASKSVSTSGYTYMHWYQQKPGQPPKLLIYLASNRESGVPDRFSGSGSGTDFTLTISPVQAEDVATYYCQHSGELPPSFGQGTKLEIKR
Output: 26 nM
